- System: 786-0 renal
- Experimental Protocol: NCI-60 one-dose screen, 48 h
- Details: 10 µM unless noted
This is part of a sample that, as a whole, favours compounds with a hit. Of some 83,000 tested, about 20% had one in any assay. Activity calls are given as the source filed them. The calls were made as follows: active = growth percent below 10; inactive = the rest.
Give one outcome, nothing more. List: t = active, f = inactive

Please review the following examples before continuing.
O=C1NC(=O)C(=Cc2cn(C(=O)c3ccccc3)c3ccccc23)C(=O)N1 = f
CCCCCCCCCCCCCC[P+](CCCCCC)(CCCCCC)CCCCCC = t
O=C1CC2(CC3(Cl)C(Cl)=C(Cl)C2(Cl)C3(Cl)Cl)C(=O)O1 (stereo unspecified) = f
COc1cc(NC(C)CCCNC2CN3CCC2CC3)c2ncccc2c1 (stereo unspecified) = f
C[C@]12CC[C@H]3[C@@H](CC[C@]4(O)C[C@@H](O[C@@H]5O[C@H](CO)[C@@H](O[C@@H]6OC[C@@H](O)[C@H](O)[C@H]6O)[C@H](O)[C@H]5O)CC[C@]34C=O)[C@@]1(O)CC[C@@H]2C1=CC(=O)OC1 = t
O=Cc1cn(Cc2ccc(Cl)cc2)c2ccccc12 = f
CC[C@]12C=CCN3CC[C@@]4(c5ccc(OC)cc5N(C)[C@H]4[C@@](O)(C(=O)OC)[C@@H]1OC(=O)CCCC[P+](c1ccccc1)(c1ccccc1)c1ccccc1)[C@@H]32 = f
CCCCCCCCOC(=O)CCN1CC1 = f

Turning now to a further record.
[ask] State the result this test recorded for ClCCN(CCCl)c1nc(Cl)c(C2CC(c3ccccc3)=NN2c2cc(Cl)cc(Cl)c2)s1 (stereo unspecified) .
[reply] f

###

- Tested on: IGROV1 ovarian
- Experimental Protocol: NCI-60 one-dose screen, 48 h
- Details: 10 µM unless noted
Compounds without any hit were thinned out: in the full panel of roughly 83,000, 20% have a hit. Activity calls are given as the source filed them. The calls were made as follows: active = growth percent below 10; inactive = the rest.
Give one outcome, nothing more. List: active, inactive

CC(=O)O[C@H]1CC[C@@]2(C)C(=CC[C@H]3[C@@H]4C[C@@H](N5CC5)[C@H](C(C)=O)[C@@]4(C)CC[C@@H]32)C1 = inactive
O=C(NCCN1CC1)C(=O)NCCN1CC1 = inactive
COc1ccc2c(c1)c(-c1nc(-c3c[nH]c4ncccc34)cs1)cn2CCN1CCOCC1 = inactive
COc1cccc(/C=C/[N+](=O)[O-])c1 = inactive
COc1ccc(C(O)(C(=O)O)c2ccc(OC)cc2)cc1 = inactive

[ask] State the result this test recorded for C/C(=C\c1ccn(-c2ccc(N)c(F)c2)n1)[C@@H]1C[C@@H]2O[C@]2(C)CCC[C@H](C)[C@H](O)[C@@H](C)C(=O)C(C)(C)[C@@H](O)CC(=O)O1 .
[reply] inactive

[ask] State the result this test recorded for Clc1ccc(CSC(Cn2ccnc2)c2ccc(Cl)cc2Cl)cc1 (configuration not stated) .
[reply] inactive

[ask] State the result this test recorded for ClCCN(CCCl)c1ccc(/C=N/Nc2ncnc3nc[nH]c23)cc1 .
[reply] inactive

[ask] State the result this test recorded for CCC(C)(C)[C@H](NC(=O)[C@H]1CCCCN1C)C(=O)N(C)[C@H](C[C@@H](OC(C)=O)c1nc(C(=O)N[C@@H](Cc2ccccc2)C[C@H](C)C(=O)O)cs1)C(C)C .
[reply] inactive

[ask] State the result this test recorded for COc1cc2c(cc1OCCCn1c(-c3ccccn3)nc3ccccc31)N=C[C@@H]1CCCN1C2=O .
[reply] active

[ask] State the result this test recorded for O=C1NC(=O)C(=Cc2cccn2CCCCCn2c3ccccc3c(=O)c3ccccc32)C(=O)N1 .
[reply] inactive

[ask] State the result this test recorded for CO[C@H]1CC[C@@]2(C)C(=CC[C@@H]3[C@@H]2CC[C@]2(C)C(=O)C(=O)C[C@@H]32)C1 .
[reply] inactive

[ask] State the result this test recorded for NC(=O)C(Br)c1ccccc1 (configuration not stated) .
[reply] inactive
